Source: paper PMC6009906

Target: GSTP1-1 (glutathione transferase P1-1) (Homo sapiens, UniProt P09211)
Sequence (P09211 2-210): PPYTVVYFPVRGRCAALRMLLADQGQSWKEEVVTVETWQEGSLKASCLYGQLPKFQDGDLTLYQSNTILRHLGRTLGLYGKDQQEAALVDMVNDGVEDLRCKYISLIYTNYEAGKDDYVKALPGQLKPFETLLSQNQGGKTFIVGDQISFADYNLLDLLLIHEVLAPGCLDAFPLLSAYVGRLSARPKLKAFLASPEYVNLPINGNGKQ
Experiment: CDNB-GSH conjugation assay in buffer B (no detergent), pH […] °C
Format: biochemical
ASSAY READOUT: Ki (nM)
Number only, in nM; omit the unit.

Sample "CC(=O)OCCCCCCSc1ccc([N+](=O)[O-])c2nonc12" — what was its Ki?
600
